tested on: VRE C6488; assay: Anti-microbial activity test in vitro (agar dilution MIC); format: cell-based, Enterococcus faecium; conditions: VRE C6488; Agar Dilution method, Mueller Hinton Agar, 18 hours at 37° C.
This listing pairs molecules with measured Minimum inhibition concentration (MIC).

molecule | Minimum inhibition concentration (MIC) / µg/mL
CC(=O)NC[C@H]1CN(c2ccc(N3CCC(=CC(C)OC(=O)C(Cl)Cl)CC3)c(F)c2)C(=O)O1 (some centres unmarked) [Compound 25] | 4
CON=CC=C1CCN(c2ccc(N3C[C@H](CNC(C)=O)OC3=O)cc2F)CC1 [Compound 19] | 4
CC(=O)NC[C@H]1CN(c2ccc(N3CCC(=Cc4cc(-c5cccs5)no4)CC3)c(F)c2)C(=O)O1 [Compound 9] | 16
CCOC(=O)C(C#N)=C1CCN(c2ccc(N3C[C@H](CNC(C)=O)OC3=O)cc2F)CC1 [Compound 7] | 2
CC(=O)C=C1CCN(c2ccc(N3C[C@H](CNC(C)=O)OC3=O)cc2F)CC1 [Compound 12] | 8
CCOC(=O)C=C1CCN(c2ccc(N3C[C@H](CNC(C)=O)OC3=O)cc2F)CC1 [Compound 11] | 8
CC(=O)NC[C@H]1CN(c2ccc(N3CCC(=CC=NO)CC3)c(F)c2)C(=O)O1 [Compound 18] | 4
CON=C(C)C=C1CCN(c2ccc(N3C[C@H](CNC(C)=O)OC3=O)cc2F)CC1 [Compound 21] | 4

* * *

Below, each entry is listed with its recorded Minimum inhibition concentration (MIC).
Tested on: MSSA C2214
Assay: Anti-microbial activity test in vitro (agar dilution MIC)
Type: cell-based, Staphylococcus aureus
Details: MSSA C2214; Agar Dilution method, Mueller Hinton Agar, 18 hours at 37° C.
Method: Anti-microbial activity test in vitro Strains were cultivated for 18 hours at 37° C. in Agar Dilution method using Mueller Hinton Agar, and then plane plates inoculated with the strains by diluting them two times gradually were aligned in a row. Minimum inhibition concentration (MIC, μg/ml) for the representative compounds of the present invention, Linezolid (LZD) and vancomycin (VAN) were decided through visual observation, and the results are shown in the following tables 2 and 3.

molecule | readout.units | Minimum inhibition concentration (MIC)
CC(=O)NC[C@H]1CN(c2ccc(N3CCC(=CC(C)OC(=O)CCl)CC3)c(F)c2)C(=O)O1 (some centres unmarked) [Compound 24] | µg/mL | 16
CCOC(=O)C(Cl)=C1CCN(c2ccc(N3C[C@H](CNC(C)=O)OC3=O)cc2F)CC1 [Compound 15] | µg/mL | 8
CC(=O)C=C1CCN(c2ccc(N3C[C@H](CNC(C)=O)OC3=O)cc2F)CC1 [Compound 12] | µg/mL | 16
CCOC(=O)C=C1CCN(c2ccc(N3C[C@H](CNC(C)=O)OC3=O)cc2F)CC1 [Compound 11] | µg/mL | 16
CC(=O)NC[C@H]1CN(c2ccc(N3CCC(=Cc4cc(-c5cccs5)no4)CC3)c(F)c2)C(=O)O1 [Compound 9] | µg/mL | 16
CC(=O)NC[C@H]1CN(c2ccc(N3CCC(=C(C)C#N)CC3)c(F)c2)C(=O)O1 [Compound 16] | µg/mL | 2
CC(=O)NC[C@H]1CN(c2ccc(N3CCC(=CC=NO)CC3)c(F)c2)C(=O)O1 [Compound 18] | µg/mL | 8
CC(=O)NC[C@H]1CN(c2ccc(N3CCC(=Cc4cc(-c5csnc5C)no4)CC3)c(F)c2)C(=O)O1 [Compound 10] | µg/mL | 16
